assay procedure: qHTS assay for re-activators of p53 using a Luc reporter: Hit Validation with no p53 Expressed
condition parameters: p53-null cells, luciferase reporter counter-screen; series mostly up to 46.1 µM
Results filed as inconclusive are left out. Calls of active or inactive are those of the source. Calls come from the whole dose curve; as a rule, active = well fitted activation curve with a large enough effect; inconclusive = small, poorly fitted or top-dose-only effect; inactive = no such curve, though single readings can be large or run the other way.
measurement name: outcome

-- ask Reported outcome for Cc1cc(N2C(=O)C3CCCN3C2c2sccc2C)no1 (stereo not drawn) : what is it?
-- reply inactive

-- ask Find the recorded outcome belonging to "O=C(N/N=C/c1c(O)n(C2CC2)c(=S)[nH]c1=O)c1ccccc1" and report it.
-- reply inactive

-- ask Give its outcome value. Item: "COC(=O)C1=C(c2cccc(C#N)c2)C[C@@H]2CC[C@H]1N2C(=O)NC1CC1"
-- reply inactive

====

assay procedure: qHTS assay for re-activators of p53 using a Luc reporter: Hit Validation with no p53 Expressed
condition parameters: p53-null cells, luciferase reporter counter-screen; series mostly up to 46.1 µM
Records with an inconclusive call do not appear. Active and inactive are the calls of the source. Calls come from the whole dose curve; as a rule, active = well fitted activation curve with a large enough effect; inconclusive = small, poorly fitted or top-dose-only effect; inactive = no such curve, though single readings can be large or run the other way.
measurement name: outcome

Worked cases, outcome given:
-- ask Need outcome, item COc1ccc(NC(=O)C2C3CCC(O3)C2C(=O)O)c(OC)c1 (stereo unspecified)
-- reply inactive

-- ask Give the measured outcome of C=C(C)C(Cc1c(OC)ccc(C(=O)/C=C/c2ccc(O)cc2)c1O)OO (stereo unspecified) .
-- reply inactive

-- ask Given the compound "Nc1ccccc1N=Cc1c(O)n(CCC2=CCCCC2)c(=O)[nH]c1=O" , what is its reported outcome?
-- reply inactive

-- ask Dear colleague, I am looking for the recorded outcome of the following compound: CC1CCCCC1NC1CCN(C)CC1 (stereo unspecified)
-- reply inactive

Others:
-- ask What value of measured outcome is listed for "N=C1c2ccccc2CN1CC(=O)c1ccccc1" ?
-- reply inactive

-- ask May I ask what outcome has been recorded for "O=C(c1cc2c(s1)CCCC2)N1CCC2(CC1)OCCO2" ?
-- reply inactive
